system: UniProt Q9NR97
Sequence (Q9NR97 27-1041): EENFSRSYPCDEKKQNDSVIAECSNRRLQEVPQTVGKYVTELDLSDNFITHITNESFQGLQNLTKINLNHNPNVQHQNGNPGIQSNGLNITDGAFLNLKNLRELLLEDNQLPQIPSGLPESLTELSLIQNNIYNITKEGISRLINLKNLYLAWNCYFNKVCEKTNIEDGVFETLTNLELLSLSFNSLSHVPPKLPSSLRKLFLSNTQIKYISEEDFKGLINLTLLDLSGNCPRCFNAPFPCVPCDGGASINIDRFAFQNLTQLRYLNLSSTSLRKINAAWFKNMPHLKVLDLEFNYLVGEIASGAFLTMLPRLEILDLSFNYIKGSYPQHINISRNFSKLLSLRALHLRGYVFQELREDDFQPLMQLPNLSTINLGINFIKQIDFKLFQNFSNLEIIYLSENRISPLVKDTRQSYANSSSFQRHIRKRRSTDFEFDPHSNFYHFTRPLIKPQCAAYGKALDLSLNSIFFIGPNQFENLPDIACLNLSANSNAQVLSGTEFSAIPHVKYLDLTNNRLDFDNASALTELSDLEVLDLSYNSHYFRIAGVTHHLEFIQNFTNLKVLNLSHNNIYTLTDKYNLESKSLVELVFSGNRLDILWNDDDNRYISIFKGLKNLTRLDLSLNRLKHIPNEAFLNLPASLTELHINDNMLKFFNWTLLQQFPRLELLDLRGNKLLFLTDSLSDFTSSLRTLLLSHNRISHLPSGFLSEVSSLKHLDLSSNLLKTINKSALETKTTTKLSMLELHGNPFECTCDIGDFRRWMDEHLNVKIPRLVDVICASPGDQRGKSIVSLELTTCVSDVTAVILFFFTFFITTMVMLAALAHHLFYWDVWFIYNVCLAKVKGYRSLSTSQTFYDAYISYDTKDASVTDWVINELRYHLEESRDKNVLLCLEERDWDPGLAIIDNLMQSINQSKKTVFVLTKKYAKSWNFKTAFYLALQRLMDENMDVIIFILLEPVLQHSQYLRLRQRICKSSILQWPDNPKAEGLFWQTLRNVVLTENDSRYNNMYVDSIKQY
experimentSummary: huPBMC TLR8 Antagonist IL-6 TR-FRET Assay
Type: cell-based
Set-up: Fresh blood was collected from normal human donors; endogenous in cells; host or cells: human PBMCs from fresh donor blood
testParameters: human PBMCs stimulated with ssRNA40 1 μg/ml (DOTAP), 14-16 hrs; IL-6 TR-FRET read-out
measuredAttribute: IC50 (nM)
Answers are plain numbers, in nM.

[[record]]
smilesrepr = "CCNCC(=O)NC12CCC(Cn3nc(C)c4c3CCN(c3cc(C)nc5c3cnn5C)C4)(CC1)CC2"
system = "UniProt Q9NR97"
unitssymbol = "nM"
numericvalue = 15

[[record]]
smilesrepr = "Cc1cc(N2CCc3c(c(C)nn3CC34CCC(N5CCOC[C@H]5C)(CC3)CC4)C2)c2cnn(C)c2n1"
system = "UniProt Q9NR97"
unitssymbol = "nM"
numericvalue = 12

[[record]]
smilesrepr = "Cc1cc(N2CCc3c(c(C)nn3CC34CCC(N)(CC3)C4)C2)c2cnn(C)c2n1"
system = "UniProt Q9NR97"
unitssymbol = "nM"
numericvalue = 861


Input Cc1cc(N2CCc3c(c(C)nn3CC34CCC(NCC(=O)N5CCCC5)(CC3)CC4)C2)c2cnn(C)c2n1 , output reported IC50. 168
